Test: PET hydrolysis, aromatic products released after 48 h (umol product/mg enzyme); higher = more PET depolymerization activity
Settings: substrate: aFilm; 40 °C; pH 7.5
Outcome Measure: PET hydrolysis

Query: Query PET hydrolysis for QAPDRTALARTGPYQVAYYTQLPPAAEFSAATLFFPANKAQAFGGVVIAPGYTEKQVNVQWWGYHLASHGYAVLVLDTNDPEEYPDRRADALMAGVAVLRGENTRMGSTLRGKILEGRIALMGHSMGGGGTLLAANGHSDQLKTIIPFTPWLPGADFSAVSVPTLVLAGEIDRIAAVKDHAWPHYESLTGAVPRMYLEVKGGNHYIANSMTDREDRNPNIDVHDLVGSMVVAWLKTFLDDDESYRELVFGDLPEADRVRISRLEFVE [TEP006]
Response: < 3

Query: Query PET hydrolysis for AANPYERGPAPTAASIAATTGPFAVASVSVPRGNGFGGGVIYYPTSTSQGTFGGVAISPGLNGTWAGIAWLGPRLASQGFVIFGIETNNLNDSPASRGTQLLAALDFLTRSSSVRTRVDASRLAVAGHSMGGGGALSAALQRPSLQAAIGNAPHLPSGSLATDRVPTLIYAMQNDTLVTPSRLTSLYNSMPATTERAYIEVAGAGHNYIGQPSTTLARTMIPWLKIFVDNDARYSQFLCPLSNQSGISQYRNSCPLISTTTLSTGVDSTSGLAVR [ESM157]
Response: < 3

Query: Query PET hydrolysis for ANPYERGPDPTLASVEATSGTFAYASLSVSSGNGFGGGTIYYPTSTTDGTFAGIVTCPGFTNSGSSMAWFGKVLASQGFVTLVMNPKSNLDFPDARATQMLAALDWLTNSSSVKTRIDATRLGVLGQSMGGGATLKASKTRPSLKASFATAPYNSDKDWSTNTVPQFLFGMQNDTTAAVTNHALKFYNSLPATTPKIYAELRGAGHSTATSPNTSIRRYAVSFMKRNLDNDTRYSQFLCPGPTITSSSPLSAFMSNCLF [DP080]
Response: < 3

====

Provide the reported PET hydrolysis of each item.
Experiment: PET hydrolysis, aromatic products released after 48 h (umol product/mg enzyme); higher = more PET depolymerization activity
Details: substrate: aFilm; 60 °C; pH 5.5

Query: Query PET hydrolysis for EEPASGYQRGPAPTTSSIESSRGPFSTSQVSISGLSANGFGGADVYYPTDTSQGTFGAVAISPGYTARKSSMAWLASRLASQGFVVINIDTNTTSDQPASRGRQLLAALDQVTKDSRVANRIDPTRLAVVGHSMGGGGALEASRSRPSLQAAIPLTPWNTTKSFSGNQVPTLVVGAERDTVASVRSHAEPFYRSLPSAPGKAYLELAGASHFAPNTSNTTIAKHSIAWLKLFVDNDERYRQFVCPGPTSDRAVSDYQNTCSSFTP [DP053]
Response: < 3

Query: Query PET hydrolysis for AEAADNPYQRGPDPTLASVAATRGPFATAQATVPAGNGFNGGYVYYPTDTSLGTWGAVAIVPGYSALFADEEAWMGPWLASFGFVVLGIETNSRTDGADARATQLLAALDYLTQSSPVRHRVDANRLGVMGHSAGGAGTLMAALRRPSLKSAVGLAPGAPGNSLNMSTTQVPTMLISGQNDGTVTPSYVQGIYNTLPATVEHAWAELAGNDHLSFTRPNPTEMRILIPWLKIFLDNDTRYTQFLCPLADSTGVSRYSATCPLVPPGGPTAPPTVTPPPPTPTTPSPTTPPTSAACTATYRTVNSWSGGFQGEVTVTAGRAAINGWTVRWDLGNGQSISQVWNGTLSTSGSTATVRNVSYNGSLAPAASTGFGFLGTGAPAIPRLTCTSP [ESM037]
Response: < 3
